molecular target: Aminopeptidase N (Sus scrofa, UniProt P15145); assay: Effect of inhibitor structure on the slow binding inhibition of aminopeptidase M was determined and the Ki was reported which is = k2/k1
Sequence (P15145 whole entry): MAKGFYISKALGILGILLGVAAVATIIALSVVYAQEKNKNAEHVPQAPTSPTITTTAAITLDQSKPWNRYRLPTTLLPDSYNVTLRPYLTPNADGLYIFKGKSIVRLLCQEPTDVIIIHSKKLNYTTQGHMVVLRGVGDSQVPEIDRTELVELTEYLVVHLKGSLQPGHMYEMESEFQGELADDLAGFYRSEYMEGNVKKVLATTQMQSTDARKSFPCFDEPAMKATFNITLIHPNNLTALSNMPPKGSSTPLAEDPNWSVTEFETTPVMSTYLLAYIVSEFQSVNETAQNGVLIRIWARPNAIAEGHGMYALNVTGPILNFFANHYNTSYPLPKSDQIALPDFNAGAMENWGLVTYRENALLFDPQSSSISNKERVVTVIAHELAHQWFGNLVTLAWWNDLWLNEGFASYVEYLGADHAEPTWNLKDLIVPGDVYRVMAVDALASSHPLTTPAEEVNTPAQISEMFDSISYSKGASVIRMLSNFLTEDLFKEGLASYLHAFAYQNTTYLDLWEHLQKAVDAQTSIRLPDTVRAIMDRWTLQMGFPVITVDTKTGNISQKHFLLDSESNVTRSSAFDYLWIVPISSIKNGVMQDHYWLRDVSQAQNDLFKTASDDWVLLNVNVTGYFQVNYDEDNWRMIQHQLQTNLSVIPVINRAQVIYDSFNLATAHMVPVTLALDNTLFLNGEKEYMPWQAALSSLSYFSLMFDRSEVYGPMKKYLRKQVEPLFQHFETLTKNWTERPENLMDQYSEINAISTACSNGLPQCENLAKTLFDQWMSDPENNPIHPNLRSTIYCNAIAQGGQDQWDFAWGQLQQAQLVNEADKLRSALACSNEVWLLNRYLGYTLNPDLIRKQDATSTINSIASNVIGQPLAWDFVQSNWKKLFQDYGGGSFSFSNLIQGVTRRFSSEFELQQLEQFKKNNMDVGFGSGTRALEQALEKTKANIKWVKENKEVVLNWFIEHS
Attribute measured: Ki (µM)

{"Compound": "CC(C)CC(N)C(O)C(=O)NC(C(=O)NC(CC(=O)O)C(=O)O)C(C)C (stereo unspecified)", "Result number": 40}

====

molecular target: Aminopeptidase N (Sus scrofa); assay: Effect of inhibitor structure on the slow binding inhibition of Aminopeptidase M from porcine kidney was determined and Ki was reported which is obtained by the equation Ki[k4/(k3 + k4)]
Attribute measured: Ki (µM)

{"Test smiles": "CC(C)CCNC(=O)[C@H](O)[C@@H](N)Cc1ccccc1", "Result number": 16}
